Values from patent US7741493B2

- measured.on: P2X7 (Homo sapiens, UniProt Q99572)
- Sequence (Q99572 whole entry): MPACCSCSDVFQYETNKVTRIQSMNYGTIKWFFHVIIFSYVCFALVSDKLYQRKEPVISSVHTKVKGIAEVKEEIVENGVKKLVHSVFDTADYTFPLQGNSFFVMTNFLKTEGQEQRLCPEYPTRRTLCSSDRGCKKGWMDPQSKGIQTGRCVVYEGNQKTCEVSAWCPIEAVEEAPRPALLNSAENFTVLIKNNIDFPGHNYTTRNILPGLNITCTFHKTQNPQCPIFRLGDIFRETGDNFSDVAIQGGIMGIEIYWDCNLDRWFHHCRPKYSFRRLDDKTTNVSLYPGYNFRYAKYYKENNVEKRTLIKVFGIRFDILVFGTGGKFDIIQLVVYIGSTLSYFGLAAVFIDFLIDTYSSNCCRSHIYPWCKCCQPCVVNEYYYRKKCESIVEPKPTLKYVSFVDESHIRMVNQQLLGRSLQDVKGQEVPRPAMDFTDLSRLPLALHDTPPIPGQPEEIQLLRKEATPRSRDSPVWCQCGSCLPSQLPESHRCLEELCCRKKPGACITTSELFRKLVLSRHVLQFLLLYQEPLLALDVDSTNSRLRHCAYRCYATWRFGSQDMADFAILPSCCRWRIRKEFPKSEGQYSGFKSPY
- measurement.notes: YO-PRO-1 dye uptake assay in U373 cells stably expressing P2X7
- Format: cell-based
- Set-up: The complete open reading frame of human P2X7 was amplified from Incyte clone 148057; expressed in transfected cells
- cond: dye uptake through P2X7, U373 cells, 300 μM BzATP, 5 μM YO-PRO-1, test compounds 30 nM to 3 μM; read-out: IC50
- Protocol: Following a 24-hr exposure to DNA, cells were trypsinized and re-seeded at low density in the presence of […] G418. After incubation for 2 weeks, isolated clones were selected with cloning cylinders and replated in […] G418. Cell clones were then expanded. […] U373 cells stably expressing P2X7 were used to screen drugs via a dye uptake assay. […] Fluorescence in the presence of test substances was compared to that in the absence of test substances (control).
Structures can show the parent of a compound that is named as a salt.
experimental.readout: IC50 (nM)

Some compounds with known IC50 results, for comparison:
Request: Request the reported IC50 associated with Fc1cccc([C@H]2NC(NCc3ccccc3)=N[C@H]2c2cccc(F)c2)c1 [hydrochloride]
Response: 90

Request: Request the reported IC50 associated with c1ccc(C(CC2=N[C@@H](c3ccccc3)[C@@H](c3ccccc3)N2)c2ccccc2)cc1 [trifluoroacetate]
Response: 320

Request: Request the reported IC50 associated with C[C@H](C1=N[C@@H](c2ccccc2)[C@@H](c2ccccc2)N1)c1ccccc1 [trifluoroacetate]
Response: 110

1: C[C@@]1(c2ccccc2)N=C(COc2cccc(F)c2)N[C@@H]1c1ccccc1 (relative stereo) [trifluoroacetate]
2: COc1ccccc1CCC1=N[C@@H](c2ccccc2)[C@@H](c2ccccc2)N1 [trifluoroacetate]
Request: When 1 and 2 are compared, which has the higher number for IC50? Reply with the label of the item you choose.
Response: 2
(2: 832 nM, 1: 104 nM)
